System: Escherichia coli
ASSAY_DETAILS: Antibacterial activity against Escherichia coli HB101 after 24 hrs by microdilution serial twofold assay
Type: functional
ASSAY_CONDITIONS: HB101, 24 h
Square brackets hold non-standard residues; d marks the D form. Peptide text beside a SMILES is read from it. 1Nal = N[C@@H](Cc1cccc2ccccc12)C(=O)O; 2Nal = N[C@@H](Cc1ccc2ccccc2c1)C(=O)O; hPhe = N[C@@H](CCc1ccccc1)C(=O)O
Below: a set of entries, each annotated with reported MIC.
METRIC_NAME: MIC

COMPOUND: CSCC[C@H](NC(=O)[C@@H](NC(=O)CNC(=O)[C@H](CC(C)C)NC(=O)[C@H](CCCCN)NC(=O)[C@H](CCCCN)NC(=O)[C@H](CC(C)C)NC(=O)[C@H](CCSC)NC(=O)[C@@H](NC(=O)[C@H](CCCCN)NC(=O)[C@H](Cc1cccc2ccccc12)NC(=O)[C@H](CC(C)C)NC(=O)[C@H](C)NC(=O)[C@@H](N)CCCCN)[C@@H](C)O)[C@@H](C)O)C(=O)N[C@@H](C)C(=O)N[C@@H](CC(C)C)C(N)=O (H-KAL[1Nal]KTMLKKLGTMAL-NH2)
SYSTEM_UNDER_TEST: Escherichia coli
METRIC_NAME: MIC
MEASURED_VALUE: 1.2 µM
//
COMPOUND: CSCC[C@H](NC(=O)[C@@H](NC(=O)CNC(=O)[C@H](CC(C)C)NC(=O)[C@H](CCCCN)NC(=O)[C@H](CCCCN)NC(=O)[C@H](CC(C)C)NC(=O)[C@H](CCSC)NC(=O)[C@@H](NC(=O)[C@H](CCCCN)NC(=O)[C@H](CCc1ccccc1)NC(=O)[C@H](CC(C)C)NC(=O)[C@H](C)N)[C@@H](C)O)[C@@H](C)O)C(=O)N[C@@H](C)C(=O)N[C@@H](CC(C)C)C(N)=O (H-AL[hPhe]KTMLKKLGTMAL-NH2)
SYSTEM_UNDER_TEST: Escherichia coli
METRIC_NAME: MIC
MEASURED_VALUE: 11.7 µM
//
COMPOUND: CSCC[C@H](NC(=O)[C@@H](NC(=O)CNC(=O)[C@H](CC(C)C)NC(=O)[C@H](CCCCN)NC(=O)[C@H](CCCCN)NC(=O)[C@H](CC(C)C)NC(=O)[C@H](CCSC)NC(=O)[C@@H](NC(=O)[C@H](CCCCN)NC(=O)[C@H](Cc1cccc2ccccc12)NC(=O)[C@H](CC(C)C)NC(=O)[C@H](C)N)[C@@H](C)O)[C@@H](C)O)C(=O)N[C@@H](C)C(=O)N[C@@H](CC(C)C)C(N)=O (H-AL[1Nal]KTMLKKLGTMAL-NH2)
SYSTEM_UNDER_TEST: Escherichia coli
METRIC_NAME: MIC
MEASURED_VALUE: 2.8 µM
//
COMPOUND: CSCC[C@H](NC(=O)[C@@H](NC(=O)CNC(=O)[C@H](CC(C)C)NC(=O)[C@H](CCCCN)NC(=O)[C@H](CCCCN)NC(=O)[C@H](CC(C)C)NC(=O)[C@H](CCSC)NC(=O)[C@@H](NC(=O)[C@H](CCCCN)NC(=O)[C@H](Cc1ccc2ccccc2c1)NC(=O)[C@H](CC(C)C)NC(=O)[C@H](C)N)[C@@H](C)O)[C@@H](C)O)C(=O)N[C@@H](C)C(=O)N[C@@H](CC(C)C)C(N)=O (H-AL[2Nal]KTMLKKLGTMAL-NH2)
SYSTEM_UNDER_TEST: Escherichia coli
METRIC_NAME: MIC
MEASURED_VALUE: 2.8 µM
